- Target System: UniProt:Q9NR97
- Sequence (Q9NR97 27-1041): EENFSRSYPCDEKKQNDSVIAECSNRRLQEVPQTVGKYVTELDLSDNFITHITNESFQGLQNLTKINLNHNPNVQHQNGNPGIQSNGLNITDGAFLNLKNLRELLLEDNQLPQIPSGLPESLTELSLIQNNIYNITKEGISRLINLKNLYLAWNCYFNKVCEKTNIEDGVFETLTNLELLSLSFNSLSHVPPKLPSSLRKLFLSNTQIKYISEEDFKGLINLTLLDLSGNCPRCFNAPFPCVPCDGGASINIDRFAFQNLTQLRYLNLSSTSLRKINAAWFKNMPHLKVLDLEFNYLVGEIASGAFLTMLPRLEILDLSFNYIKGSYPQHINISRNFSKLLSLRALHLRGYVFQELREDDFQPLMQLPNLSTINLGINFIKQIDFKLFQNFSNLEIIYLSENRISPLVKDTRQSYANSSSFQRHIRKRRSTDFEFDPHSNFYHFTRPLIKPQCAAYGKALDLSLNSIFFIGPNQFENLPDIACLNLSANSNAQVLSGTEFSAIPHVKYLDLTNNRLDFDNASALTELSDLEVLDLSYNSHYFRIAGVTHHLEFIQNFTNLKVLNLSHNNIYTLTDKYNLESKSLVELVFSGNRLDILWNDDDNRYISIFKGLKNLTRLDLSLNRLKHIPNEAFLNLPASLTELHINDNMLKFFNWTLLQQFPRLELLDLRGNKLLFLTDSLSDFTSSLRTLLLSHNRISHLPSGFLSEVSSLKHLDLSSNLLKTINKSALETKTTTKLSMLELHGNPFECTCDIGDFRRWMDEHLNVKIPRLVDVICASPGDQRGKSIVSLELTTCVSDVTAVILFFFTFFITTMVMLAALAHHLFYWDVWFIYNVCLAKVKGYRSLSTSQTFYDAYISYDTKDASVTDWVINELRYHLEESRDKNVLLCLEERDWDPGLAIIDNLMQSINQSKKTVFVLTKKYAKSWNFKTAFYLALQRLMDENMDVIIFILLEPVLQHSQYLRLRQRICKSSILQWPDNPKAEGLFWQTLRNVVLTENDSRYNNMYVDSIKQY
- Measurement Notes: TLR8 inhibition reporter assay (HEK-Blue SEAP);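 also: SEAP driven by IFN-β minimal promoter carrying NF-κB and AP-1 sites, compounds dosed 0.05 nM to 50 µM for 22 h, inhibition scaled between agonist-plus-DMSO and reference-inhibitor wells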
- Condition Parameters: read-out: TLR8 IC50; HEK-Blue human TLR8 cells, R848 15.9 μM
pIC50: −log10 of the molar value.
Listed compounds paired with reported pIC50
Assay Readout: pIC50

- Compound: "Cc1c(-c2[nH]c3ccc(N4CCN(C(=O)CN(CCO)C(C)(C)C)[C@H](C)C4)nc3c2C(C)C)cn2ncnc2c1C"
  Quantitative Result: 8.70
- Compound: "Cc1c(-c2[nH]c3ccc(N4CCN(C(=O)CN(CCO)C(C)(C)C)C[C@H]4C)nc3c2C(C)C)cn2ncnc2c1C"
  Quantitative Result: 8.28
- Compound: "Cc1c(-c2[nH]c3ccc(N4C[C@@H](C)N[C@@H](C)C4)nc3c2C(C)C)cn2ncnc2c1C"
  Quantitative Result: 9.02
- Compound: "Cc1c(-c2[nH]c3ccc(C4CCC(N5CCC(F)C5)CC4)nc3c2C(C)C)cn2ncnc2c1C (stereo not shown) [Example 1058]"
  Quantitative Result: 8.46
